assay: chemical genetic growth profiling, strain panel (AID 1159580);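 further: tested at 20 µM; growth read once vehicle control cultures reached saturation at 30 °C; 1 = growth at the plate median or of vehicle wells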; conditions: S. cerevisiae deletion strains, growth OD, locus YBR135W, strain CKS1, hits give low values
Out of some 5,500 compounds screened, about 2,000 (36%) were called active. Inconclusive results (about 18%) are left out. The list shows a part of the results.
REPORTED_PROPERTY: normalized growth

> print(dat)
                              smiles.record  reported.property  data.value
1  Cc1nc([N+](=O)[O-])cn1CC(=O)c1ccc(Cl)cc1  normalized growth       0.982
2  COC(=O)c1ccc(Oc2c(C(F)(F)F)oc3cc(O)ccc3c2=O)cc1  normalized growth       0.975
3                NNC(=O)COc1ccc(C2SCCS2)cc1  normalized growth       0.954

---

test: chemical genetic growth profiling, strain panel (AID 1159580); conditions: S. cerevisiae deletion strains, growth OD, locus YML032C, strain rad52, hits give low values
About 2,000 (36%) of roughly 5,500 compounds were called active. Roughly 18% stayed inconclusive and do not appear here. The list shows a part of the results.
normalized growth less than 1 is TRUE; normalized growth greater than or equal to 1 is FALSE.

> print(dat)
                              smiles.record  group.label
1                      CNC(=O)CSP(=S)(OC)OC        FALSE
2             CCN(CC)CCNC(=O)COc1ccc(OC)cc1         TRUE
3          CC(C)=CCOc1c2occc2cc2ccc(=O)oc12         TRUE
4  CCOc1ccc(Cc2nccc3cc(OCC)c(OCC)cc23)cc1OCC         TRUE
5          CC(C)=CCC1=C(O)c2ccccc2C(=O)C1=O         TRUE

---

assay: chemical genetic growth profiling, strain panel (AID 1159580); details: S. cerevisiae deletion strains, growth OD, locus YFR003C, strain YPI1, hits give low values
In all, about 5,500 compounds went through this assay and about 2,000 (36%) were called active. Inconclusive results (about 18%) are left out. This is one part of the list.
Documented normalized growth across a set of compounds
REPORTED_PROPERTY: normalized growth

> print(dat)
                              smiles.record  reported.property  data.value
1      CC(/C=C/c1ccccc1)=N/OC(=O)c1ccccc1Cl  normalized growth        0.97
2            O=C(Oc1ccc(C2SCCS2)cc1)c1cccs1  normalized growth        1.01
3  Cc1nc(C(F)(F)F)ccc1-c1nnc(SC(=O)c2ccc(Cl)cc2)o1  normalized growth       0.879
4  Cc1nc(C(F)(F)F)ccc1C(=O)Sc1nnc(-c2ccc(C(F)(F)F)nc2C)o1  normalized growth       0.952

---

test: chemical genetic growth profiling, strain panel (AID 1159580);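 further: tested at 20 µM; growth read once vehicle control cultures reached saturation at 30 °C; 1 = growth at the plate median or of vehicle wells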; details: S. cerevisiae deletion strains, growth OD, locus YMR219W, strain ESC1, hits give low values
The campaign covered roughly 5,500 compounds. About 2,000 (36%) were called active. Inconclusive results (about 18%) are left out. This is one part of the list.
// normalized growth lookup, one value per entry
REPORTED_PROPERTY: normalized growth

> print(dat)
                              smiles.record  reported.property  data.value
1               COc1cccc(NC(=S)NCc2ccco2)c1  normalized growth       0.992
2  O=S(=O)(c1ccc(Cl)c(Cl)c1)N1CCN(c2ccc(C(F)(F)F)cn2)CC1  normalized growth        1.01
3           CCN(C(=S)Nc1ccc(OC)cc1)c1ccccc1  normalized growth        1.02
4  CCCc1cc(C(=O)Nc2ccc(N(CC)CC)cc2)nn1-c1ccccc1  normalized growth       0.999
5  Cc1oc(-c2ccccc2)cc1C(=O)N1CCN(c2ccc(C(F)(F)F)cn2)CC1  normalized growth       0.975
6    S=C(NCc1ccco1)Nc1ccc(Oc2ccc(Cl)cc2)cc1  normalized growth        0.97

---

assay: chemical genetic growth profiling, strain panel (AID 1159580);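 further: tested at 20 µM; growth read once vehicle control cultures reached saturation at 30 °C; 1 = growth at the plate median or of vehicle wells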; conditions: S. cerevisiae deletion strains, growth OD, locus YDR392W, strain spt3
In all, about 5,500 compounds went through this assay and about 2,000 (36%) were called active. Inconclusive results (about 18%) are left out. No stated cut-off is given here; in the data, active means normalized growth mostly below about 0.91 (no sharp cut-off); inconclusive means no clear call, values can overlap the other calls; inactive means mostly above about 0.92. Some of the results follow.
Outcome codes: TRUE = active, FALSE = inactive

COMPOUND	GROUP_LABEL
O=C1c2ccccc2C(=O)c2c(O)c(O)cc(O)c21	TRUE
COC(=O)C[C@H]1C(C)(C)[C@@H](OC(C)=O)[C@@H]2CC3C4CC(=O)O[C@@H](c5ccoc5)[C@]4(C)CCC3[C@@]1(C)C2=O (stereo not given in full)	FALSE
Cc1cc(O)c2c(c1O)C(=O)c1c(O)cc(C)c(O)c1C2=O	FALSE
O=c1ccc2ccc(O)c(O)c2o1	FALSE
COc1cc2ccc(=O)oc2c2ccoc12	TRUE
CCOc1nc2cccc(C(=O)OC(C)OC(=O)OC3CCCCC3)c2n1Cc1ccc(-c2ccccc2-c2nn[nH]n2)cc1 (stereo not given)	FALSE
CC1(C)C[C@@H]2C(=O)CC[C@H]3O[C@]3(C)CC[C@H]21	FALSE
CCCc1nc(C(C)(C)O)c(C(=O)OCc2oc(=O)oc2C)n1Cc1ccc(-c2ccccc2-c2nn[nH]n2)cc1	FALSE
O=C1c2ccc(O)c(O)c2C(=O)c2c(O)ccc(O)c21	TRUE
COc1c2occc2cc2ccc(=O)oc12	FALSE

---

assay: chemical genetic growth profiling, strain panel (AID 1159580);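 further: tested at 20 µM; growth read once vehicle control cultures reached saturation at 30 °C; 1 = growth at the plate median or of vehicle wells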; conditions: S. cerevisiae deletion strains, growth OD, locus YGL078C, strain dbp3
Screen size: about 5,500 compounds; about 2,000 (36%) were called active. Roughly 18% stayed inconclusive and do not appear here. Rule as the data show it: active = normalized growth mostly below about 0.91 (no sharp cut-off); inconclusive = no clear call, values can overlap the other calls; inactive = mostly above about 0.92. This is one part of the list.
Labels: t for active, f for inactive

COMPOUND	GROUP_LABEL
COc1cc(OC)c2c(c1Cl)OC1(C2=O)C(O)=CC(=O)CC1C (stereo not drawn)	f
CC(=O)OC1CCC2C3CCc4cc(O)ccc4C3CCC12C (stereo not drawn)	f
Cn1nnnc1SCC1=C(C(=O)O)N2C(=O)C(NC(=O)C(OC=O)c3ccccc3)C2SC1 (stereo not drawn)	f
C[C@]12C=CC(=O)C=C1CCC1C2CC[C@]2(C)C(=O)CCC12 (stereo partly drawn)	f
C[C@]12CCC3C(CC[C@H]4C[C@@H](Cl)CC[C@]34C)C1CCC2=O (stereo partly drawn)	f
COc1ccc2c(=O)c(-c3cc4c(cc3OC)OCO4)coc2c1	f
CCCC(=O)Nc1ncnc2c1ncn2C1O[C@@H]2COP(=O)(O)O[C@H]2[C@H]1OC(=O)CCC (stereo partly drawn)	f
O=c1[nH]cnc2nc[nH]c12	f
Cc1cc(C)nc(NS(=O)(=O)c2ccc(N)cc2)n1	f
CCOc1nc2cccc(C(=O)OC(C)OC(=O)OC3CCCCC3)c2n1Cc1ccc(-c2ccccc2-c2nn[nH]n2)cc1 (stereo not drawn)	f
CC1(C)C[C@@H]2C(=O)CC[C@H]3O[C@]3(C)CC[C@H]21	f
CCCc1nc(C(C)(C)O)c(C(=O)OCc2oc(=O)oc2C)n1Cc1ccc(-c2ccccc2-c2nn[nH]n2)cc1	f
CCS(=O)(=O)CCn1c([N+](=O)[O-])cnc1C	f
c1ccc2c(c1)[nH]c1cnccc12	f
CC1=C2CCC3C(CC[C@]4(C)C(=O)CCC34)[C@@]2(C)CCC1=O (stereo partly drawn)	f
Cn1c([N+](=O)[O-])cnc1COC(N)=O	f
COc1cc2c(cc1-c1coc3c4c(c(OC)cc3c1=O)OC(C)(C)C=C4)OCO2	f
CC(C)(O)CC[C@@H](O)[C@](C)(O)C1CC[C@@]2(O)C3=CC(=O)C4C[C@@H](O)[C@@H](O)C[C@]4(C)C3CC[C@]12C (stereo partly drawn)	f
CC(C)=CCc1c(O)cc2occ(-c3ccc4c(c3)OCO4)c(=O)c2c1O	f
CC1(C)S[C@@H]2[C@H](NC(=O)COc3ccccc3)C(=O)N2[C@H]1C(=O)O	f
C[C@]12CCC3C(CC[C@H]4C[C@@H](O)CC[C@]34C)C1CCC2=O (stereo partly drawn)	f
CC(=O)N[C@@H](CC(=O)O)C(=O)O	f
CCCCC(=O)N(Cc1ccc(-c2ccccc2-c2nn[nH]n2)cc1)[C@H](C(=O)O)C(C)C	f
CC(=O)OCC(=O)[C@@]1(O)CCC2C3CCC4=CC(=O)CC[C@]4(C)[C@@]3(F)[C@@H](O)C[C@@]21C (stereo partly drawn)	f
C/C=C(\C)C(=O)OC1[C@@H]2C=C3C4CC(=O)O[C@@H](c5ccoc5)[C@]4(C)CCC3[C@@](C)(C2=O)[C@@H](C(O)C(=O)OC)C1(C)C (stereo partly drawn)	f
N#C/C(=C\c1ccc(O)cc1)C(=O)O	f
CC1=C2[C@](C)(C=CC1=O)C[C@H](O)[C@H]1[C@H](C)C(=O)O[C@]21C	f
Nc1ncnc2nc[nH]c12	f
COc1cc(OC)c(-c2c(OC)cc(OC)cc2OC)c(OC)c1	f
CCC(=O)O[C@H]1CCC2C3CCc4cc(O)ccc4C3CC[C@@]21C (stereo partly drawn)	f
COc1cc(OC)cc(OC)c1	t
CCN(CC)CCNC(=O)COc1ccc(OC)cc1	f
Cc1cc(O)c2c(c1O)C(=O)c1c(O)cc(C)c(O)c1C2=O	f
